System: UDH-3 (environmental isolate, S. saprophyticus)
Assay Explanation: MIC by broth microdilution
Type: cell-based
Measurement Setup: Staphylococcus saprophyticus; environmental isolate
Assay Readout: MIC (µg/mL)
Give bare numbers, in µg/mL.

Recorded results for 6 compounds are shown here.
| Compound | MIC, µg/mL |
| --- | --- |
| COC(=O)CC1COc2c(cc3c4c2CCCN4CCC3)-c2c(NC(C)(C)C)n3c(-c4cc(OC)ccc4OC)csc3[n+]21 (centres unmarked) [Compound 1t] | 6.25 |
| COC(=O)CC1COc2c(cc3c4c2CCCN4CCC3)-c2c(NC(C)(C)C)n3c(-c4ccc(Br)cc4)csc3[n+]21 (centres unmarked) [Compound 1q] | 12.5 |
| CCN(CC)c1ccc2c(c1)OCC(CC(=O)OC)[n+]1c-2c(NC(C)(C)C)n2c(-c3ccc(OC)cc3)c(-c3ccc(OC)cc3)sc21 (centres unmarked) [Compound 1h] | 3.12 |
| COC(=O)CC1COc2c(cc3c4c2CCCN4CCC3)-c2c(NC(C)(C)C)n3c(-c4cccc5c4OCCO5)csc3[n+]21 (centres unmarked) [Compound 1p] | 6.25 |
| COC(=O)CC1COc2c(cc3c4c2CCCN4CCC3)-c2c(NC(C)(C)C)n3c4ccc(Br)cc4sc3[n+]21 (centres unmarked) [Compound 1v] | 12.5 |
| COC(=O)CC1COc2c(cc3c4c2CCCN4CCC3)-c2c(NC(C)(C)C)n3c(-c4ccc(Br)cc4)c(C)sc3[n+]21 (centres unmarked) [Compound 1o] | 3.12 |

Each of the following entries comes with a recorded value; kindly state MIC for each.
1. COC(=O)CC1COc2c(cc3c4c2CCCN4CCC3)-c2c(N)n3c(-c4ccc(F)cc4)c(C)sc3[n+]21 (centres unmarked) [Compound 2b]
2. COC(=O)CC1COc2c(cc3c4c2CCCN4CCC3)-c2c(NC(C)(C)C)n3c(-c4ccccc4)c(-c4ccccc4)sc3[n+]21 (centres unmarked) [Compound 2a]
3. O=C(O)c1cn(C2CC2)c2cc(N3CCNCC3)c(F)cc2c1=O [Ciprofloxacin, ciprofloxacin, reference compound]
4. COC(=O)CC1COc2c(cc3c4c2CCCN4CCC3)-c2c(NC(C)(C)C)n3c(-c4ccc(F)c(F)c4)csc3[n+]21 (centres unmarked) [Compound 1s]
5. COC(=O)CC1COc2c(cc3c4c2CCCN4CCC3)-c2c(NC(C)(C)C)n3c(-c4ccc(NC(C)=O)cc4)csc3[n+]21 (centres unmarked) [Compound 1w]

Result:
[25, 3.12, 64, 12.5, 12.5]

Cited source for all entries: patent US10526343B2
